# SYSTEM_NAME: eIF4A3 (Homo sapiens, UniProt P38919)
# Sequence (P38919 whole entry, species assumed): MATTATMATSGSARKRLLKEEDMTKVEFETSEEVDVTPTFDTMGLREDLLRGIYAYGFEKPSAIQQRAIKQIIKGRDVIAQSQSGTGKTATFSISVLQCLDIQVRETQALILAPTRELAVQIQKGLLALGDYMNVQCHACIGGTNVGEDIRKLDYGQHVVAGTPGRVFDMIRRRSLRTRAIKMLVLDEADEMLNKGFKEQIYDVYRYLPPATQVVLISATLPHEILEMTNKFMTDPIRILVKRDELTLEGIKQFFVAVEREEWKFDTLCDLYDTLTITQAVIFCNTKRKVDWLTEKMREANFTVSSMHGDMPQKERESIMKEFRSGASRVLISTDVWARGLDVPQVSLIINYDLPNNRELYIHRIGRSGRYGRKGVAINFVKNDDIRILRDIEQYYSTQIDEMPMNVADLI
# ASSAY_NOTES: Fluorescence polarization
# Assay type: binding
# PARTICULARS: 10 µM compound, 1 mM AMPPNP
MEASUREMENT_LABEL: Clamping of eIF4A3 to poly r(AG)8 RNA (ΔmP relative to DMSO)

>>> measured_result("CONC(=O)[C@H]1[C@@H](O)[C@@]2(O)c3c(OC)cc(OC)cc3O[C@@]2(c2ccc(OC)cc2)[C@@H]1c1ccccc1 [CR-1-31B]")
"able to induce clamping"
>>> measured_result("COc1ccc([C@@]23Oc4cc(OC)cc(OC)c4[C@]2(O)[C@H](O)[C@H](C(=O)N(C)C)[C@H]3c2ccccc2)cc1 [RocA]")
"able to induce clamping"
>>> measured_result("COC(=O)[C@H]1[C@@H](O)[C@@]2(O)c3c(OC)cc(O[C@@H]4O[C@@H]([C@H](O)CO)CO[C@H]4OC)cc3O[C@@]2(c2ccc(OC)cc2)[C@@H]1c1ccccc1 [silvestrol]")
"able to induce clamping"
